Test: Apparent volume of distribution in ICR mouse at 5 mg/kg, iv by HPLC-MS/MS analysis
Format: ADME, organism-based
Conditions: in vivo, read-out: Vz
Reported endpoint: Vd (L/kg)
Supply the numeric figure in L/kg, leaving out any unit text.

Task item: Give Vd for the following molecule: `COc1ccc(S(=O)(=O)NC(=O)c2cc(Cl)cc(-c3nc4ccccc4[nH]3)c2)cc1`
Reply: 0.813

* * *

Assay: Clearance in ICR mouse at 100 mg/kg, po by HPLC-MS/MS analysis
Type: ADME, organism-based
Details: in vivo
Reported endpoint: CL/F (mL/min/kg)
Supply the numeric figure in mL/min/kg, leaving out any unit text.

Task item: Give CL/F for the following molecule: `COc1ccc(S(=O)(=O)NC(=O)c2cc(Cl)cc(-c3nc4ccccc4[nH]3)c2)cc1`
Reply: 87
